Test system: UACC-257 melanoma
EXPERIMENT SUMMARY: NCI tumour cell line growth inhibition, 48 h
Below, each entry is listed with its recorded TGI.

Use these answered entries as a reference point.
MOLECULE | VALUE TYPE | ENDPOINT RESULT
CC1(C)C(C#N)=[N+]([O-])C(C)(C)N1O | TGI | > 100 µM
C=C[C@]1(O)CCC[C@]2(C)C(=O)CCC12C (some centres undefined) | TGI | > 100 µM
COc1cccc(NC(=O)C(C)(C)C)c1C=O | TGI | > 100 µM
Cc1c(-c2ccccc2)c(=O)oc2ccc(Cl)cc12 | TGI | > 100 µM
c1ccc(CSc2ccccc2CN2CCN(Cc3ccccc3SCc3ccccc3)CCN(Cc3ccccc3SCc3ccccc3)CC2)cc1 | TGI | 2.94 µM
CC(C)CCSC1=CC(=O)c2ccccc2C1=O | TGI | 26.7 µM
C=C1[C@H](OC(=O)C(C)C)[C@@H](OC(C)=O)[C@@H](OC(C)=O)C(C)(C)[C@@H]2O[C@H]2[C@@H](C)C(=O)[C@@]2(OC(C)=O)C[C@@](C)(OC(C)=O)[C@H](OC(C)=O)[C@@H]2[C@H]1OC(C)=O | TGI | > 100 µM
COc1c(C)c2c(c3c1c(=O)c1ccccc1n3C)C=CC(C)(C)O2 | TGI | 76.6 µM
COc1ccc(/C=N/n2c(=O)[nH]c3ccccc3c2=O)cc1 | TGI | > 100 µM
C[N+](C)(C)CC(=O)N/N=C(\CCC(=O)NCCc1ccccc1)CC(=O)c1ccccc1 | TGI | > 100 µM

Query: What does the data say about its TGI? Entry: CCCc1cc(=O)oc2c(C=O)c(O)cc(O)c12
Reply: 65.2 µM

Query: Given the entry Cc1[nH]n(C2=NCCN2)c(=O)c1C , report its measured TGI.
Reply: > 100 µM

Query: Give its TGI value. Item: Cc1nc2ccccn2c1NC(=O)NNC(=S)Nc1ccc(Br)cc1
Reply: > 100 µM

Query: Need TGI, item CN(C)CC1CCCC(CN2CCCCC2)C1=O (centres undefined)
Reply: 30.8 µM

Query: Need TGI, item C=C1C(=O)OC2/C=C(\C)C3OC3/C=C(/C(=O)OC)C(O)C(OC(=O)C3(C)OC3C)C12 (centres undefined)
Reply: 3.45 µM

Query: Request the reported TGI associated with COc1cc(OC)c2ssc3c(OC)cc(OC)c4ssc1c2-c43
Reply: > 100 µM

Query: Which TGI value belongs to Nc1ccccc1SC(CC(=O)c1ccccc1)c1ccc([N+](=O)[O-])cc1 (centres undefined) ?
Reply: 27.8 µM
